# Target of assay: p38a/PRAK (Homo sapiens (Human))
# Sequence (Q16539 whole entry): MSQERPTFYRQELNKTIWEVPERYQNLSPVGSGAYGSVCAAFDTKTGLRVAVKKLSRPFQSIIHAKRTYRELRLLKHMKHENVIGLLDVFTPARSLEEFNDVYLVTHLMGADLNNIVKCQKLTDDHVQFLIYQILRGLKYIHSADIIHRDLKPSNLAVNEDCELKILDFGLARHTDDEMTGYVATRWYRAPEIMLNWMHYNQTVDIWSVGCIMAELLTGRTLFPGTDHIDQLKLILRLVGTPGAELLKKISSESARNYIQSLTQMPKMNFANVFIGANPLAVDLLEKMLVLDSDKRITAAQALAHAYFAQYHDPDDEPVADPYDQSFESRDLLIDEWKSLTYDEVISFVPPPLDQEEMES
# Protocol text: p38a/PRAK biochemical assay: activation of PRAK by p38, FITC-HSP27 peptide phosphorylation (IMAP FP)
# Stated conditions: 10-point 1:3 dilution, top dose 300 μM; 60 pM active p38a, 1 nM inactive PRAK, 10 μM ATP, 2 h incubation; read-out: p38a/PRAK Enzyme pIC50 (converted)
Measured quantity: IC50

{"Molecule": "Cc1cnc(-c2ccnc(C(C)(C)CO)n2)cc1-n1c(C)cc(OCc2ncc(F)cc2F)c(Cl)c1=O (atropisomer, axis not shown) [Example 4]", "Recorded result": "7.94 µM"}
{"Molecule": "Cc1cnc(-n2ccc(C(C)(C)O)n2)c(C)c1-n1c(C)cc(OCc2ncc(F)cc2F)c(Cl)c1=O (single isomer, unassigned) [Example 50B]", "Recorded result": "> 316 µM"}
{"Molecule": "Cc1cnc(-c2ccnc(C(C)(C)O)c2F)cc1-n1c(C)cc(OCc2ncc(F)cc2F)c(Cl)c1=O (atropisomer, axis not shown) [Example 56B]", "Recorded result": "> 316 µM"}
{"Molecule": "Cc1cnc(-n2ccc(CC(C)(C)O)n2)cc1-n1c(C)cc(OCc2ncc(F)cc2F)c(Cl)c1=O (single isomer, unassigned) [Example 46A]", "Recorded result": "2.51 µM"}
{"Molecule": "Cc1cc(COc2cc(C)n(-c3cc(-c4ccnc(C(C)(C)O)n4)ncc3C)c(=O)c2Cl)ncc1F (single isomer, unassigned) [Example 22B]", "Recorded result": "> 316 µM"}
{"Molecule": "Cc1cnc(-c2cccc(C(C)(C)O)n2)c(F)c1-n1c(C)cc(OCc2ncc(F)cc2F)c(Cl)c1=O (single isomer, unassigned) [Example 63A]", "Recorded result": "> 316 µM"}

----------
# Target of assay: p38a/MK2 (Homo sapiens (Human), UniProt P49137+Q16539)
# Sequence (P49137 46-400): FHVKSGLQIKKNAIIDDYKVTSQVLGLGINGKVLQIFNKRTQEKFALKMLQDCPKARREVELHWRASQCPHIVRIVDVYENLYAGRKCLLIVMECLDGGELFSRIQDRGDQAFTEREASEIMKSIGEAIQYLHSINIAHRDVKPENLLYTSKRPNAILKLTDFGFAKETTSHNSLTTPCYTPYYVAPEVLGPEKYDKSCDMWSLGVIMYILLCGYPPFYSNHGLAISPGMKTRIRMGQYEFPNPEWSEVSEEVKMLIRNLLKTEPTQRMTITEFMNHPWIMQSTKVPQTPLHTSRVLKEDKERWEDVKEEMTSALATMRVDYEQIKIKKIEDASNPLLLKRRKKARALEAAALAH
# Sequence (Q16539 whole entry): as the sequence (Q16539 whole entry) above
# Protocol text: p38a/MK2 biochemical assay: activation of MK2 by p38, FITC-HSP27 peptide phosphorylation (IMAP FP)
# Stated conditions: 10-point 1:3 dilution, top dose 10 μM; 60 pM active p38a, 1 nM inactive MK2, 10 μM ATP, 2 h incubation; read-out: p38a/MK2 (10 μM) Enzyme pIC50 (converted)
IC50 by entry:
Measured quantity: IC50 (nM)

{"Molecule": "Cc1cnc(-c2ccc3c(n2)[C@H](O)CC3)cc1-n1c(C)cc(OCc2ncc(F)cc2F)c(Cl)c1=O (single isomer, unassigned) [Example 18D]", "Target of assay": "p38a/MK2 (Homo sapiens (Human), UniProt P49137+Q16539)", "Measurement units": "nM", "Recorded result": 79.4}
{"Molecule": "Cc1cnc(-c2ccnc(C(C)(C)C(F)F)n2)cc1-n1c(C)cc(OCc2ncc(F)cc2F)c(Cl)c1=O (single isomer, unassigned) [Example 5A]", "Target of assay": "p38a/MK2 (Homo sapiens (Human), UniProt P49137+Q16539)", "Measurement units": "nM", "Recorded result": 6.31}
{"Molecule": "Cc1cnc(-c2ccc3c(n2)C(C)(O)CC3)cc1-n1c(C)cc(OCc2ncc(F)cc2F)c(Cl)c1=O (single isomer, unassigned) [Example 32B]", "Target of assay": "p38a/MK2 (Homo sapiens (Human), UniProt P49137+Q16539)", "Measurement units": "nM", "Recorded result": 1000}
{"Molecule": "Cc1cnc(-c2cccc([C@H](O)CO)n2)cc1-n1c(C)cc(OCc2ncc(F)cc2F)c(Cl)c1=O (single isomer, unassigned) [Example 34C]", "Target of assay": "p38a/MK2 (Homo sapiens (Human), UniProt P49137+Q16539)", "Measurement units": "nM", "Recorded result": 2000}
{"Molecule": "Cc1cnc(-c2ccnc(C3(O)CC3)n2)cc1-n1c(C)cc(OCc2ncc(F)cc2F)c(Cl)c1=O (atropisomer, axis not shown) [Example 3]", "Target of assay": "p38a/MK2 (Homo sapiens (Human), UniProt P49137+Q16539)", "Measurement units": "nM", "Recorded result": 20}
{"Molecule": "Cc1cnc(-c2ccc3c(n2)C(C)(O)CC3)cc1-n1c(C)cc(OCc2ncc(F)cc2F)c(Cl)c1=O (single isomer, unassigned) [Example 32D]", "Target of assay": "p38a/MK2 (Homo sapiens (Human), UniProt P49137+Q16539)", "Measurement units": "nM", "Recorded result": 1260}

----------
# Target of assay: p38a/PRAK (Homo sapiens (Human))
# Protocol text: p38a/PRAK biochemical assay: activation of PRAK by p38, FITC-HSP27 peptide phosphorylation (IMAP FP)
# Stated conditions: 10-point 1:3 dilution, top dose 300 μM; 60 pM active p38a, 1 nM inactive PRAK, 10 μM ATP, 2 h incubation; read-out: p38a/PRAK Enzyme pIC50 (converted)
IC50 under 20 µM gets True, anything at or over 20 µM gets False.

{"Compound": "Cc1cnc(-c2ccnc(C3(O)CC3)n2)cc1-n1c(C)cc(OCc2ncc(F)cc2F)c(Cl)c1=O (single isomer, unassigned) [Example 3B]", "Label value": "False"}
{"Compound": "[2H]C([2H])(Oc1cc(C)n(-c2c(C)cnc(-n3ccc(C(C)(C)O)n3)c2F)c(=O)c1Cl)c1ncc(F)cc1F [Example 58A]", "Label value": "True"}
{"Compound": "Cc1cnc(-c2ccnc(N(C)CCO)n2)cc1-n1c(C)cc(OCc2ncc(F)cc2F)c(Cl)c1=O (single isomer, unassigned) [Example 43B]", "Label value": "False"}
{"Compound": "Cc1cnc(-c2ccc(F)c(C(C)(C)O)n2)cc1-n1c(C)cc(OCc2ncc(F)cc2F)c(Cl)c1=O (single isomer, unassigned) [Example 24A]", "Label value": "True"}
{"Compound": "Cc1cnc(-c2cncc(C(C)(C)O)n2)cc1-n1c(C)cc(OCc2ncc(F)cc2F)c(Cl)c1=O (single isomer, unassigned) [Example 51A]", "Label value": "True"}
{"Compound": "[2H]C([2H])(Oc1cc(C)n(-c2c(C)cnc(-c3ccnc(C(C)(C)O)n3)c2F)c(=O)c1Cl)c1ncc(F)cc1F (single isomer, unassigned) [Example 57B]", "Label value": "False"}
{"Compound": "CCc1cnc(-c2ccnc(C(C)(C)O)n2)cc1-n1c(C)cc(OCc2ncc(F)cc2F)c(Cl)c1=O (single isomer, unassigned) [Example 29B]", "Label value": "False"}
{"Compound": "Cc1cnc(-c2ccnc([C@@H](O)C3CC3)n2)cc1-n1c(C)cc(OCc2ncc(F)cc2F)c(Cl)c1=O (single isomer, unassigned) [Example 35D]", "Label value": "False"}
{"Compound": "[2H]C([2H])([2H])C(O)(c1nccc(-c2ncc(C)c(-n3c(C)cc(OCc4ncc(F)cc4F)c(Cl)c3=O)c2F)n1)C([2H])([2H])[2H] (single isomer, unassigned) [Example 66B]", "Label value": "True"}
{"Compound": "Cc1cnc(-c2cccc([C@@](C)(O)CO)n2)cc1-n1c(C)cc(OCc2ncc(F)cc2F)c(Cl)c1=O (single isomer, unassigned) [Example 36B]", "Label value": "True"}
{"Compound": "COc1cnc(-c2ccnc(C(C)(C)O)n2)cc1-n1c(C)cc(OCc2ncc(F)cc2F)c(Cl)c1=O (atropisomer, axis not shown)", "Label value": "False"}
{"Compound": "[2H]C([2H])(Oc1cc(C)n(-c2cc(-c3ccnc(C(C)(C)O)c3F)ncc2C)c(=O)c1Cl)c1ncc(F)cc1F (single isomer, unassigned) [Example 64B]", "Label value": "False"}
{"Compound": "Cc1cc(COc2cc(C)n(-c3cc(-c4ccnc(C(C)(C)O)n4)ncc3C)c(=O)c2Cl)ncc1F (single isomer, unassigned) [Example 22A]", "Label value": "True"}
{"Compound": "Cc1cnc(-c2ccc3c(n2)C(C)(O)CC3)cc1-n1c(C)cc(OCc2ncc(F)cc2F)c(Cl)c1=O (single isomer, unassigned) [Example 32A]", "Label value": "True"}
{"Compound": "Cc1cnc(COc2cc(C)n(-c3cc(-c4ccnc(C(C)(C)O)n4)ncc3C)c(=O)c2Cl)c(F)c1 (single isomer, unassigned) [Example 23B]", "Label value": "False"}
{"Compound": "Cc1cnc(-n2ccc(C(=O)NC3CC3)n2)cc1-n1c(C)cc(OCc2ncc(F)cc2F)c(Cl)c1=O [Example 44A]", "Label value": "True"}
{"Compound": "[2H]C([2H])(Oc1cc(C)n(-c2c(C)cnc(-c3cccc(C(C)(C)O)[n+]3[O-])c2F)c(=O)c1Cl)c1ncc(F)cc1F (single isomer, unassigned) [Example 68B]", "Label value": "True"}
{"Compound": "Cc1cnc(-n2ccc(C(C)(C)O)n2)cc1-n1c(C)cc(OCc2ncc(F)cc2Cl)c(Cl)c1=O (single isomer, unassigned) [Example 47B]", "Label value": "False"}
{"Compound": "CCc1cnc(-c2ccnc(C(C)(C)O)n2)cc1-n1c(C)cc(OCc2ncc(F)cc2F)c(Cl)c1=O (single isomer, unassigned) [Example 29A]", "Label value": "True"}
{"Compound": "Cc1sc(-c2ccnc(C(C)(C)O)n2)nc1-n1c(C)cc(OCc2ncc(F)cc2F)c(Cl)c1=O", "Label value": "False"}
{"Compound": "Cc1cnc(-n2ccc(C(C)(C)O)n2)c(F)c1-n1c(C)cc(OCc2ncc(F)cc2F)c(Cl)c1=O (single isomer, unassigned) [Example 54A]", "Label value": "False"}
{"Compound": "Cc1cnc(-c2nc(C(C)(C)O)ncc2C2CC2)cc1-n1c(C)cc(OCc2ncc(F)cc2F)c(Cl)c1=O (single isomer, unassigned) [Example 31B]", "Label value": "False"}
{"Compound": "Cc1cnc(-c2cccc(C(C)(C)O)[n+]2[O-])c(F)c1-n1c(C)cc(OCc2ncc(F)cc2F)c(Cl)c1=O (single isomer, unassigned) [Example 62A]", "Label value": "True"}
